# target.or.system: human CD3 epsilon/delta heterodimer, Fc-tagged (human)
# Sequence (chain, as listed by the source mutant, chain 1 of 2): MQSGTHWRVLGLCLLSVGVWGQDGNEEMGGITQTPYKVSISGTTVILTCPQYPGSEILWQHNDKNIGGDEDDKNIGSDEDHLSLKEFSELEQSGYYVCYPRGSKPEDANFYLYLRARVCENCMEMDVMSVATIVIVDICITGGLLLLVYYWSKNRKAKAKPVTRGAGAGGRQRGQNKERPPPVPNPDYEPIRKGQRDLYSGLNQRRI
# Sequence (chain, as listed by the source mutant, chain 2 of 2): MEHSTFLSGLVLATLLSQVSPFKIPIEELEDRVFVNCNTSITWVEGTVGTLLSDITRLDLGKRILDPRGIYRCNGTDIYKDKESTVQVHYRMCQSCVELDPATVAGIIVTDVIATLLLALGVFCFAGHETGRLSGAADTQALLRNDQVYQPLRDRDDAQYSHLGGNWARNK
# assay.method.text: SPR, 25C antibody-capture
Each item that follows carries a reported pKd.
Schema: pKd number; meaning minus log10 of the concentration expressed in molar units.

H2M3543N (antibody, V domains shown) VH: EVQLVESGGGLVQPGRSLRLSCAASGFTFDDYTMHWVRQAPGKGLEWVSDISWNSGSIGYADSVKGRFTVSRDNAKNSLYLQMNSLRGEDTALYYCAKDMSGYAHYGYYGMDVWGQGTTVTVSS VL: DIQMTQSPSSLSASVGDRVTITCRASQSIRNYLNWYQQKPGKVPKLLIYAASSLQSGVPSRFSGSGSGTDFTLTISSLQPEDFATYYCQQSYSNPPITFGQGTRLEIK ... 7.52

Looking up H2M2778N (antibody, V domains shown) VH: EVQLVESGGGLVQPGRSLRLSCAASGFTFDDYSMHWVRQAPGKGLEWVSGISWNSRSIDYADSVKGRFTISRDNAKNSLYLQMNSLRAEDTALYYCVKDNSGYGRYYYYGMDVWGQGTTVSVSS VL: KIVMTQSPATLSVSPGERATLSCRASQSVSGNLAWYQQKPGQAPRLLIYGASTRATSIPARFSGSGSGTEFTLTISSLQSEDFAVYFCQHYYNWPLTFGGGTKVEIR , I see its pKd listed as 8.05

Looking up H2M2704N (antibody, V domains shown, not fully specified; listing feature) VH: QVQLVESGGGVVQPGRSLRLSCGASGFTFRSYGMHWVRQTPGRGLEWVAMIYYDGNNKYYADSVRGRFTVSRDNSKNTLYLQMSSLRAEDTALYFCARGPGYNWLDPWGQGTLVTVSS VL: EIVMTQSPATLSVSPGERATLSCRASQSISRNLAWYQXKPGQAPRLLIYGASTRATGIPARFSGSGSGTEFTLTISSLQSEDFAVYYCQQYNNRPLTFGGGTEVEIK , I see its pKd listed as 7.70

Looking up H2M2705N (antibody, V domains shown) VH: QVQLVESGGGVVQPGRSLRLACVASGFTFRSYGMHWVRQAPGKGLQWVAMIYYDGKNKYYADSVRGRFTISRDNSKNTLYLQMNNLRVEDTAMYFCARGPGYNWLDPWGQGTLVTVSS VL: EIVMTQSPATLSVSPGERATLSCRASQRISSNLAWYQQKPGQAPRLLIYGASTRATGSPARFSGSGSGTDFTLTISSLQSEDVAVYYCQQHHNWPLTFGGGTKVEIK , I see its pKd listed as 7.86

These entries and their values trace back to patent US20210403595.
